- study target: CDK4/Cyclin D1 (Homo sapiens (Human), UniProt P11802)
- Sequence (P11802 whole entry): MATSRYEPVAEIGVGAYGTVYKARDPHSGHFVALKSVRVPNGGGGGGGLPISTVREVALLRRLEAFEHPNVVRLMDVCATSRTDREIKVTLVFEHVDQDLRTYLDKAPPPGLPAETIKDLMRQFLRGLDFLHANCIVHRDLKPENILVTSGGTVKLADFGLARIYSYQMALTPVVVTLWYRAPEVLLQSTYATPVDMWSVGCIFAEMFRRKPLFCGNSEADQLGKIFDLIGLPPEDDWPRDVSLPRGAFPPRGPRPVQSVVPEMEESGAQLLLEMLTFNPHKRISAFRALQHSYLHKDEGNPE
- Sequence (P24385 whole entry partner): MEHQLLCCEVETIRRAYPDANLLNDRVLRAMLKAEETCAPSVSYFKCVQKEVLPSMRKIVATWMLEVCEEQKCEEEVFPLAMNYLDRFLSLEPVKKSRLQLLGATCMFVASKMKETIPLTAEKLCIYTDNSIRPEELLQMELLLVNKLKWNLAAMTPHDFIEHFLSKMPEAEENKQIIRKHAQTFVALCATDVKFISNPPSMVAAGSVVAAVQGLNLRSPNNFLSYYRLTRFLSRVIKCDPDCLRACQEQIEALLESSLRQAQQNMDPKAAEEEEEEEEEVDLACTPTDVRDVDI
- test name: CDK4/Cyclin D1 kinase assay (Nanosyn, Caliper microfluidic)
- condition details: 12-point dose-response, singlicate, at Km for ATP; ATP 200 μM; 3 hr
measure: log10 of IC50 (log10 of the value in nM)
Reminder: these figures are log10 of reported IC50, in nM before transformation.

Consider the following illustrative entries.
CC1C(=O)Nc2cc3cnc(Nc4ccc(C(=O)N5CCN(C)CC5)cc4)nc3n2C12CCCCC2 (centres unmarked) ... 0.95
CC1C(=O)Nc2cc3cnc(Nc4ccc(S(=O)(=O)N5CCN(C)CC5)cc4)nc3n2C12CCCCC2 (centres unmarked) ... 2.14

Suppose we examine the compound Nc1ccc(S(=O)(=O)Nc2ncc3cc4n(c3n2)C2(CCCCC2)CNC4=O)cc1 ; what log10 of IC50 value has been reported? 2.56

Also need C[C@@H]1NC(=O)C2(CCCCC2)n2c1cc1cnc(Nc3ccc(S(N)(=O)=O)cc3)nc12 , thanks. 1.60

Quick one: NS(=O)(=O)c1ccc(Nc2ncc3cc4n(c3n2)C2(CCCCC2)C(=O)N[C@@H]4CF)cc1 1.28

====

- study target: CDK7 (Homo sapiens (Human))
- Sequence (P50613 whole entry): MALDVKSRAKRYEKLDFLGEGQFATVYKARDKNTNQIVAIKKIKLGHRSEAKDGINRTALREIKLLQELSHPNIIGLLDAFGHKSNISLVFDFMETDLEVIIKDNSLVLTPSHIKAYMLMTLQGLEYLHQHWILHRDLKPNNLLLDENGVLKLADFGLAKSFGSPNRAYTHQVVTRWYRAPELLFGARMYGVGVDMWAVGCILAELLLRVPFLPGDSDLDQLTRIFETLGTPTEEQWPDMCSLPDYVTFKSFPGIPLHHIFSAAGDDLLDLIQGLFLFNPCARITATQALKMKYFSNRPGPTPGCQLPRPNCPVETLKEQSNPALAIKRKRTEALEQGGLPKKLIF
- Sequence (P51946 whole entry partner): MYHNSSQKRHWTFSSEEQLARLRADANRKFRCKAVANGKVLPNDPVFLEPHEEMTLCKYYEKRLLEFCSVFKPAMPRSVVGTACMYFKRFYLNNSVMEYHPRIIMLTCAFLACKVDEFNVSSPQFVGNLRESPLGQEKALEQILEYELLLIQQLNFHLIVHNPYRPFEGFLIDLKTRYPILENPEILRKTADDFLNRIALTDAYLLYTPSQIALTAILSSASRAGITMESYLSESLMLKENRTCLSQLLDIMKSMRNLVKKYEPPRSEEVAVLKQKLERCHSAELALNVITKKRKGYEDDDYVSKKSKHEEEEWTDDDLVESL
- Sequence (P51948 whole entry partner): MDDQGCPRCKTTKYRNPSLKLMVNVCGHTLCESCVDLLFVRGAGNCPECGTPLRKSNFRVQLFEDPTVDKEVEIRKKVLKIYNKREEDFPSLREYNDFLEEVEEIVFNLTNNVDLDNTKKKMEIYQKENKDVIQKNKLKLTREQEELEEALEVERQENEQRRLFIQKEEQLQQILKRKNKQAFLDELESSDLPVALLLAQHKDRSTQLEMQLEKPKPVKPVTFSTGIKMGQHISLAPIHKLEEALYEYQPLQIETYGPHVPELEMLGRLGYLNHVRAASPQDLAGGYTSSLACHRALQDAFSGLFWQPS
Lab note - cut at 600 nM for IC50: criterion met if strictly below, criterion not met if not.

CN1CCN(S(=O)(=O)c2ccc(Nc3ncc4cc5n(c4n3)C3(CCCCC3)C(=O)NC5O)cc2)CC1 (centres unmarked) ... criterion met
NS(=O)(=O)c1ccc(Nc2ncc3cc4n(c3n2)C2(CCCCC2)C(=O)NN4)cc1 ... criterion not met
C[C@@H]1NC(=O)C2(CCCCC2)n2c1cc1cnc(Nc3ccc(S(N)(=O)=O)cc3)nc12 ... criterion not met

Is IC50 strictly under 600 nM for the entry NS(=O)(=O)c1ccc(Nc2ncc3cc4n(c3n2)C2(CCCCC2)C(=O)N[C@@H]4CF)cc1 ? criterion not met

====

- study target: CDK2/Cyclin E (Homo sapiens (Human), UniProt P24941)
- test name: CDK2/Cyclin E kinase assay (Nanosyn, Caliper microfluidic)
- condition details: 12-point dose-response, singlicate, at Km for ATP; ATP 100 μM; 3 hr
pIC50: −log10 of the molar value.
Is pIC50 at least 8? Then Condition met. If not, Condition not met.

Study these solved cases before continuing.
NC(=O)c1ccc(Nc2ncc3cc4n(c3n2)C2(CCCCC2)C(=O)NN4)cc1 ... Condition not met
CN1CCN(C(=O)c2ccc(Nc3ncc4cc5n(c4n3)C3(CCCCC3)CC(=O)N5)cc2)CC1 ... Condition met
CNC(=O)c1ccc(Nc2ncc3cc4n(c3n2)C2(CCCCC2)C(=O)NN4)cc1 ... Condition not met
NS(=O)(=O)c1ccc(Nc2ncc3cc4n(c3n2)C2(CCCCC2)C(=O)NN4)cc1 ... Condition met
CN1CCN(C(=O)c2ccc(Nc3ncc4cc5n(c4n3)C3(CCCCC3)C(=O)NN5)cc2)CC1 ... Condition met

Now examine the next entry.
Quick check, pIC50 >= 8? NS(=O)(=O)c1ccc(Nc2ncc3cc4n(c3n2)C2(CCCCC2)CC(=O)N4)cc1 Condition met

====

pIC50 values for the compounds below.
- study target: CDK9/Cyclin T1 (Homo sapiens (Human))
- Sequence (P50750 whole entry): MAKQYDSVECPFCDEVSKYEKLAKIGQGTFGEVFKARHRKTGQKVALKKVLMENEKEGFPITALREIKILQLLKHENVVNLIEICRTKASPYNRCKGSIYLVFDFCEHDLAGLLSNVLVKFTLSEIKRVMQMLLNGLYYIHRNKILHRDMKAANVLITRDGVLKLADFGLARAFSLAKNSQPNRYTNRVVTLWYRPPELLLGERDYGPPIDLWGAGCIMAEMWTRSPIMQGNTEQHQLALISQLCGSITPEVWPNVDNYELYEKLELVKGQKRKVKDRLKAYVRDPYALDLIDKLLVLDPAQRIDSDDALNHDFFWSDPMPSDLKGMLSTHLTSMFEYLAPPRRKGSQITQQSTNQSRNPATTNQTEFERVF
- Sequence (O60563 whole entry partner): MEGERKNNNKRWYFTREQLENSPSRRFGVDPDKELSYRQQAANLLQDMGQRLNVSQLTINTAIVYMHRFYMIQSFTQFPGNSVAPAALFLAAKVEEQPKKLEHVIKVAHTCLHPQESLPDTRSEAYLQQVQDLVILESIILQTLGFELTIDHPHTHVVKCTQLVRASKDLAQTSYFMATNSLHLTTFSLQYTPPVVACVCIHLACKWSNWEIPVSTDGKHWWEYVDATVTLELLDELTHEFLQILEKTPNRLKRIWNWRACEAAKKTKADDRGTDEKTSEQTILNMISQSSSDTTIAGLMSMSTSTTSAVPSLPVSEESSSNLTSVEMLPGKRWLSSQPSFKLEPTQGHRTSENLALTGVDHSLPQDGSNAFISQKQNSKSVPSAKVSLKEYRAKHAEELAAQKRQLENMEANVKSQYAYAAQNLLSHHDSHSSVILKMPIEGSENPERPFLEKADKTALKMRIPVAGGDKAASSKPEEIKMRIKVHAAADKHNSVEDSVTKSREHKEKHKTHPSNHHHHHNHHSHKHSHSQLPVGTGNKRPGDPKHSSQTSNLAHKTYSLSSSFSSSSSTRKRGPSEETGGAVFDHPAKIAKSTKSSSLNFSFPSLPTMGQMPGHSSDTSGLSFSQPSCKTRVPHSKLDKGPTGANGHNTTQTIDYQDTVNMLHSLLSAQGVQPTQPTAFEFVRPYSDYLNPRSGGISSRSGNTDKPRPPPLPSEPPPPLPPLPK
- test name: CDK9/Cyclin T1 kinase assay (Nanosyn, Caliper microfluidic)
- condition details: 12-point dose-response, singlicate, at Km for ATP; ATP 10 μM; 17 hr
Lab note: report pIC50 as minus log10 of the concentration in molar units, number only.

CC1=NN(C)c2cc3cnc(Nc4ccc(S(N)(=O)=O)cc4)nc3n2C12CCCCC2 ... 8.05
NS(=O)(=O)c1ccc(Nc2ncc3cc4n(c3n2)C2(CCCCC2)C(=O)NC4O)cc1 (stereo not shown) ... 8.85
CC1C(=O)N(C)c2cc3cnc(Nc4ccc(S(N)(=O)=O)cc4)nc3n2C12CCCCC2 (stereo not shown) ... 7.68
CN(C)C(=O)c1ccc(Nc2ncc3cc4n(c3n2)C2(CCCCC2)C(=O)NN4)cc1 ... 6.40
CC1C(=O)Nc2cc3cnc(Nc4ccc(S(N)(=O)=O)cc4)nc3n2C12CCCCC2 (stereo not shown) ... 8.22
CN1N=CC2(CCCCC2)n2c1cc1cnc(Nc3ccc(S(N)(=O)=O)cc3)nc12 ... 7.59
CC1=NNc2cc3cnc(Nc4ccc(S(N)(=O)=O)cc4)nc3n2C12CCCCC2 ... 6.62
C[C@@H]1NC(=O)C2(CCCCC2)n2c1cc1cnc(Nc3ccc(S(N)(=O)=O)cc3)nc12 ... 7.66

Which pIC50 is listed for O=C(c1ccc(Nc2ncc3cc4n(c3n2)C2(CCCCC2)C(=O)NN4)cc1)N1CCNCC1 ? 6.72

And for CN1CCN(S(=O)(=O)c2ccc(Nc3ncc4cc5n(c4n3)C3(CCCCC3)CC(=O)N5)cc2)CC1 ? 8.30

Try this compound too: Nc1ccc(S(=O)(=O)Nc2ncc3cc4n(c3n2)C2(CCCCC2)CNC4=O)cc1 6.74

Same read-out for NS(=O)(=O)c1ccc(Nc2ncc3cc4n(c3n2)C2(CCCCC2)C(=O)N[C@@H]4CF)cc1 ? 7.96

What about CNC(=O)Nc1ccc(Nc2ncc3cc4n(c3n2)C2(CCCCC2)C(=O)NN4)cc1 ? 6.55

Entry CS(=N)(=O)c1ccc(Nc2ncc3cc4n(c3n2)C2(CCCCC2)C(=O)NN4)cc1 (stereo not shown) please 7.05

Check NS(=O)(=O)c1ccc(Nc2ncc3cc4n(c3n2)C2(CCCCC2)CC(=O)N4)cc1 too. 8.35

And CN1NC(=O)C2(CCCCC2)n2c1cc1cnc(Nc3ccc(S(N)(=O)=O)cc3)nc12 ? 6.74

Then what about the compound NS(=O)(=O)c1ccc(Nc2ncc3cc4n(c3n2)C2(CCCCC2)C(=O)NN4)cc1 ? 7.21

Likewise for CC1C(=O)Nc2cc3cnc(Nc4ccc(S(=O)(=O)N5CCN(C)CC5)cc4)nc3n2C12CCCCC2 (stereo not shown) ? 8.30

Another: NS(=O)(=O)c1ccc(Nc2ncc3cc4n(c3n2)C2(C=NN4)CCCCC2)cc1 7.96

====

- study target: CDK2/Cyclin E (Homo sapiens (Human), UniProt P24941)
- test name: CDK2/Cyclin E kinase assay (Nanosyn, Caliper microfluidic)
- condition details: 12-point dose-response, singlicate, at Km for ATP; ATP 100 μM; 3 hr
pIC50: −log10 of the molar value.
The label depends only on pIC50: criterion met if it is at least 8, criterion not met if it is smaller.

CC1=NNc2cc3cnc(Nc4ccc(S(N)(=O)=O)cc4)nc3n2C12CCCCC2 ... criterion not met
CC1C(=O)Nc2cc3cnc(Nc4ccc(S(=O)(=O)N5CCN(C)CC5)cc4)nc3n2C12CCCCC2 (stereo not shown) ... criterion met
CC1C(=O)Nc2cc3cnc(Nc4ccc(C(=O)N5CCN(C)CC5)cc4)nc3n2C12CCCCC2 (stereo not shown) ... criterion met

hey, is pIC50 for this one >= 8? NS(=O)(=O)c1ccc(Nc2ncc3cc4n(c3n2)C2(CCCCC2)C(=O)N[C@@H]4CF)cc1 criterion met

Please give the result for CN1CCN(C(=O)c2ccc(Nc3ncc4cc5n(c4n3)C3(CCCCC3)C(=O)NC5O)cc2)CC1 (stereo not shown) too. criterion met

====

This document collects pIC50 values reported for CDK3-CYCLIN-E (Homo sapiens (Human)).
To interpret pIC50, take it as minus log10 of a concentration measured in moles per litre.

CN1CCN(S(=O)(=O)c2ccc(Nc3ncc4cc5n(c4n3)C3(CCCCC3)C(=O)NC5O)cc2)CC1 (stereo not drawn) ... 7.55
CN(C)C(=O)c1ccc(Nc2ncc3cc4n(c3n2)C2(CCCCC2)C(=O)NN4)cc1 ... 6.73
CC1C(=O)Nc2cc3cnc(Nc4ccc(S(N)(=O)=O)cc4)nc3n2C12CCCCC2 (stereo not drawn) ... 8.00
NS(=O)(=O)c1ccc(Nc2ncc3cc4n(c3n2)C2(CCCCC2)C(=O)N[C@@H]4CF)cc1 ... 8.22
CN1CCN(S(=O)(=O)c2ccc(Nc3ncc4cc5n(c4n3)C3(CCCCC3)CC(=O)N5)cc2)CC1 ... 7.64
NC(=O)c1ccc(Nc2ncc3cc4n(c3n2)C2(CCCCC2)C(=O)NN4)cc1 ... 7.02
CC1C(=O)Nc2cc3cnc(Nc4ccc(S(=O)(=O)N5CCN(C)CC5)cc4)nc3n2C12CCCCC2 (stereo not drawn) ... 7.24
CC1=NN(C)c2cc3cnc(Nc4ccc(S(N)(=O)=O)cc4)nc3n2C12CCCCC2 ... 7.89

Entry CN1CCN(C(=O)c2ccc(Nc3ncc4cc5n(c4n3)C3(CCCCC3)C(=O)NC5O)cc2)CC1 (stereo not drawn) : reported pIC50 = ? 8.00

# iterate: NS(=O)(=O)c1ccc(Nc2ncc3cc4n(c3n2)C2(CCCCC2)C(=O)N[C@H]4CF)cc1 7.74

Note, next up: CN1CCN(C(=O)c2ccc(Nc3ncc4cc5n(c4n3)C3(CCCCC3)CC(=O)N5)cc2)CC1 8.10

Could you do the same for NS(=O)(=O)c1ccc(Nc2ncc3cc4n(c3n2)C2(CCCCC2)C(=O)NN4)cc1 , please? 8.00
